Cited source: patent US9693997B2

Tested on: Pseudotyped HCV GT1b particles (HCVpp), entry into Huh7-high CD81 cells
EXPERIMENT_SUMMARY: microbe, parasite or virus in culture
Assay type: cell-based, HCV GT1b Con1 strain
CONDITION_INFO: Hepatitis C virus, GT1B, 72 h, read-out: HCVpp GT-1b (EC50, μM)
Structures can show the parent of a compound that is named as a salt.
Form field: log10 of EC50 (one value per entry).
All values: base-10 log of EC50 in µM.

Examples from the recorded data:
- Nc1nc(Nc2ccc(-c3ccccc3)cc2)n[nH]1: 2.00
- CC(C)S(=O)(=O)c1ccc(-c2c(F)cc(Nc3nc(N)n[nH]3)cc2C(F)(F)F)cc1: -0.82
- CC(C)(CO)NS(=O)(=O)c1ccc(-c2c(Cl)cc(Nc3n[nH]c(N)n3)cc2C(F)(F)F)cc1: -1.49
- Nc1nc(Nc2cc(Cl)c(-c3ccc(S(=O)(=O)N4CC(F)(F)C4)cc3)c(C(F)(F)F)c2)n[nH]1: -1.70
- COc1ccc(-c2c(F)cc(Nc3nc(N)n[nH]3)cc2C(F)(F)F)cc1: -0.28
- COc1ccc(-c2c(Cl)cc(Nc3n[nH]c(N)n3)cc2C(F)(F)F)cc1C(F)(F)F: -0.39
- N#Cc1ccc(-c2c(Cl)cc(Nc3n[nH]c(N)n3)cc2Cl)cc1: -0.44
- CC(C)(C)NC(=O)c1ccc(-c2c(Cl)cc(Nc3n[nH]c(N)n3)cc2Cl)cc1: -1.89
- Nc1nc(Nc2cc(Cl)c(-c3ccc(S(N)(=O)=O)cc3)c(Cl)c2)n[nH]1: -1.59
- Nc1nc(Nc2cc(Cl)c(-c3cccc(C(F)(F)F)c3)c(Cl)c2)n[nH]1: -1.85

Identify measured log10 of EC50 corresponding to CS(=O)(=O)CCN1CCC(Oc2ccc(-c3c(Cl)cc(Nc4n[nH]c(N)n4)cc3C(F)(F)F)cc2)CC1 [Compound 141, hydrochloride] -0.71

Identify measured log10 of EC50 corresponding to N#Cc1ccccc1-c1c(Cl)cc(Nc2n[nH]c(N)n2)cc1Cl 0.11

Identify measured log10 of EC50 corresponding to CNC(=O)c1ccc(-c2c(Cl)cc(Nc3n[nH]c(N)n3)cc2C(F)(F)F)cc1F -0.49

Identify measured log10 of EC50 corresponding to CNC(=O)c1cc(-c2c(Cl)cc(Nc3n[nH]c(N)n3)cc2C(F)(F)F)ccc1F -0.19

Identify measured log10 of EC50 corresponding to Nc1nc(Nc2cc(Cl)c(-c3ccccc3)c(C(F)(F)F)c2)n[nH]1 [Compound 201, 2,2,2-trifluoroacetate] -0.39

* * *

Tested on: Pseudotyped HCV GT1b particles (HCVpp), entry into Huh7-high CD81 cells
EXPERIMENT_SUMMARY: microbe, parasite or virus in culture
Type: cell-based, HCV GT1b Con1 strain
CONDITION_INFO: Hepatitis C virus, GT1B, 72 h, read-out: HCVpp GT-1b (EC50, μM)
Structures can show the parent of a compound that is named as a salt.
Define the label as yes when EC50 is strictly less than 0.08 µM and as no in all remaining cases.

Solved cases (5 shown):
• Nc1nc(Nc2cc(Cl)c(-c3ccc(OCCC4CCCN4)cc3)c(Cl)c2)n[nH]1 (centres unmarked) = yes
• CC1(C)OCC(COc2ccc(-c3c(Cl)cc(Nc4n[nH]c(N)n4)cc3Cl)cc2)O1 (centres unmarked) = no
• CC(C)(C)OC(=O)N1CCC[C@H]1COc1ccc(-c2c(Cl)cc(Nc3n[nH]c(N)n3)cc2C(F)(F)F)cc1 = no
• Nc1nc(Nc2cc(Cl)c(-c3ccccc3Cl)c(Cl)c2)n[nH]1 = no
• Nc1nc(Nc2cc(Cl)c(-c3cccc(OC4CCNCC4)c3)c(C(F)(F)F)c2)n[nH]1 [Compound 41, hydrochloride] = no

Find out if reported EC50 for CNS(=O)(=O)c1cccc(-c2c(Cl)cc(Nc3n[nH]c(N)n3)cc2Cl)c1 is less than 0.08 µM yes

Find out if reported EC50 for CS(=O)(=O)c1ccc(-c2c(Cl)cc(Nc3n[nH]c(N)n3)cc2Cl)cc1F is less than 0.08 µM yes
